target: human CYP11B1 (Homo sapiens, UniProt P15538); assay: G-402 cellular enzyme assay, human CYP11B1 (cortisol release, HTRF); settings: G-402 cells, 1 μM Deoxycortisol
Sequence (P15538 25-503): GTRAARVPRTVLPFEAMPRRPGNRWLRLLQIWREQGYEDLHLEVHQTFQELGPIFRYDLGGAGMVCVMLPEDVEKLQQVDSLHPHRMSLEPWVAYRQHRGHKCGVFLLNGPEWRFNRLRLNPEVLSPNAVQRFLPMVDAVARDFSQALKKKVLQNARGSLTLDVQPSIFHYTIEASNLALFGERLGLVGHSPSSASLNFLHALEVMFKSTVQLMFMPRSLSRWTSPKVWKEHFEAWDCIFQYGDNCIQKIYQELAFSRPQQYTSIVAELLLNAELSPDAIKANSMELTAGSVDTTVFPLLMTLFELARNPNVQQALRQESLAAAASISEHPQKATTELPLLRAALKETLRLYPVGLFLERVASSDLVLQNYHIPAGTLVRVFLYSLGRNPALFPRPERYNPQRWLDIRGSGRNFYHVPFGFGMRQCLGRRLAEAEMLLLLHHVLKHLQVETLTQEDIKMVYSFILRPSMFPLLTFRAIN
pEC50: −log10 of the molar value.
assay endpoint: pEC50

>>> quantitative_result("O=C1c2ccc(Cl)cc2CCN1c1cncc(C(O)c2ccc(F)c(F)c2)c1 (stereo not drawn)")
6.48
>>> quantitative_result("CC1(C)c2cc(Cl)ccc2C(=O)N1c1cncc(CNC(=O)c2ncccc2Cl)c1")
6.04

(1) Cc1cc(C)n(Cc2cncc(N3CCc4cc(Cl)ccc4C3=O)c2)n1
(2) CC(C)C(=O)Nc1cncc(N2CCc3cc(Cl)ccc3C2=O)c1
[in] Between item 1 and item 2 , which reported pEC50 is smaller? Write down the label of the entry you select.
[out] 2

(A) CC1(C)c2cc(Cl)ccc2C(=O)N1c1cncc(CN2CCCC2=O)c1
(B) COc1cncc(N2C(=O)c3ccc(Cl)cc3CC2C)c1 (stereo not drawn)
(C) Cc1noc(C)c1-c1cncc(N2CCc3cc(Cl)ccc3C2=O)c1
(D) CS(=O)(=O)NC1CCc2c1cncc2N1CCc2cc(Cl)ccc2C1=O (single isomer, unassigned)
[in] List items by pEC50 in falling order. Please reply with the labels ordered as requested. Many thanks.
[out] C, A, B, D
(C: 6.83, A: 6.09, B: 5.54, D: 4.46)

----------
target: human CYP11B1 (Homo sapiens); experiment: G-402 cellular enzyme assay, human CYP11B1 (cortisol release, HTRF); conditions: G-402 cells, 1 μM Deoxycortisol
assay endpoint: EC50 (nM)

Example entries and their recorded answers appear below.
>>> quantitative_result("CS(=O)(=O)NC1CCCc2c1cncc2N1Cc2cc(Cl)ccc2C1=O (single isomer, unassigned) [Example 326]")
6610
>>> quantitative_result("CC(O)c1cncc(N2C(=O)c3ccc(Cl)cc3C2(C)C)c1 (centres unmarked)")
527
>>> quantitative_result("CC(c1cncc(N2CCc3cc(Cl)ccc3C2=O)c1)n1nccn1 (centres unmarked)")
425

(1) CCC1c2cc(Cl)ccc2C(=O)N1c1cncc2c1CCCC2NS(C)(=O)=O (mixture of isomers)
(2) CS(=O)(=O)NC1CCCc2c1cncc2N1Cc2cc(Cl)ccc2C1=O (single isomer, unassigned) [Example 327]
[in] Response body: label of entry with the larger EC50; valid values 1 , 2 . Write down the label of the entry you select.
[out] 2
(2: 10700 nM, 1: 2570 nM)

----------
biological target: human CYP11B2 (Homo sapiens); construct: expressed in transfected cells; test: G-402 cellular enzyme assay, human CYP11B2 (aldosterone release, HTRF); type: cell-based; settings: G-402 cells, 1 μM Deoxycorticosterone
assay endpoint: EC50 (µM)

(I) CC[C@@H]1c2cc(Cl)ccc2C(=O)N1c1cncc2c1CC[C@@H]2NS(C)(=O)=O (single isomer, unassigned)
(II) CS(=O)(=O)NC1CCCc2c1cncc2N1CCc2cc(Cl)ccc2C1=O (single isomer, unassigned) [Example 324]
(III) O=C1c2ccc(Cl)cc2CCN1c1cncc(CNC2COC2)c1
[in] From the records above, write out the order of decreasing EC50. Please reply with the labels ordered as requested. Many thanks.
[out] II, III, I
(II: 2.81 µM, III: 0.141 µM, I: 0.0621 µM)

(I) O=C1c2ccc(Cl)cc2CCN1c1cncc(CN2CCCS2(=O)=O)c1
(II) CCC(=O)N1CCCC(c2cncc(N3C(=O)c4ccc(Cl)cc4C3(C)C)n2)C1 (stereo not drawn)
(III) CC1(C)c2cc(Cl)ccc2C(=O)N1c1cncc(CNc2cc[nH]n2)c1
(IV) CC(=O)N[C@@H]1CCCc2c1cncc2N1C(=O)c2ccc(Cl)cc2[C@@H]1C1CC1 (single isomer, unassigned)
[in] List items by EC50 in falling order. Please reply with the labels ordered as requested. Many thanks.
[out] IV, I, II, III

(P) CCC(=O)N[C@H]1CCCc2c1cncc2N1C(=O)c2ccc(Cl)cc2[C@H]1CC (single isomer, unassigned)
(Q) CCS(=O)(=O)NCc1cncc(N2Cc3cc(Cl)ccc3C2=O)c1
[in] Response body: label of entry with the larger EC50; valid values P , Q . Write down the label of the entry you select.
[out] Q
(Q: 0.682 µM, P: 0.0965 µM)

(1) CCOc1ccc2c(n1)C(C)(C)N(c1cncc(OC(F)F)c1)C2=O
(2) CC(=O)N1CCC(Oc2cncc(N3C(=O)c4ccc(Cl)cc4C3(C)C)c2)C1 (stereo not drawn)
[in] Between item 1 and item 2 , which reported EC50 is smaller? Write down the label of the entry you select.
[out] 2
(2: 0.0166 µM, 1: 0.0936 µM)

----------
Target: human CYP11B2 (Homo sapiens, UniProt P19099)
Sequence (P19099 25-503): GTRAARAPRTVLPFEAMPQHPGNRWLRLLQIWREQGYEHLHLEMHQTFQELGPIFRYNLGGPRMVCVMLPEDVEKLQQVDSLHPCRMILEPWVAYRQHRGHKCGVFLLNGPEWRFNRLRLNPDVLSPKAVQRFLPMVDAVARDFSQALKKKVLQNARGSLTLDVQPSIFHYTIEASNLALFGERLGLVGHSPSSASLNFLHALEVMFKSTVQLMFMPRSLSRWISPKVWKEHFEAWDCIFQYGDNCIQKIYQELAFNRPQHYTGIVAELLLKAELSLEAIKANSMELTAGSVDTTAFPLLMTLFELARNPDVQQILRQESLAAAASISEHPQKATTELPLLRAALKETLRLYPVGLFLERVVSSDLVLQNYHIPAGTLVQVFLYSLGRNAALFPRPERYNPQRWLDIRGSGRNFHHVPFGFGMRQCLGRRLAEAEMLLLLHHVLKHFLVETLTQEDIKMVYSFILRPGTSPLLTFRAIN
Test: G-402 cellular enzyme assay, human CYP11B2 (aldosterone release, HTRF)
Conditions: G-402 cells, 1 μM Deoxycorticosterone
From the text: Herein we identified the use of the G-402 cell line as a host cell to ectopically express (transiently or stably) enzymes of the CYP11 family. […] Importantly the identified cell line G-402 expresses co-factors (adrenodoxin and adrenodoxin reductase) important for the activity of the CYP11 family and no relevant enzyme activity of the CYP11 family (in comparison to H295R cells) was detected in these cells. […]
assay endpoint: EC50 (nM)

Example entries and their recorded answers appear below.
>>> quantitative_result("O=C1c2ccc(Cl)cc2CCN1c1cncc(CN2CCC3(COC3)C2)c1 [Example 170]")
3.5
>>> quantitative_result("O=C1c2ccc(Cl)cc2CCN1c1cncc(NS(=O)(=O)C2CC2)c1 [Example 221]")
2160
>>> quantitative_result("CC[C@@H]1c2cc(Cl)ccc2C(=O)N1c1cncc2c1CC[C@H]2NS(C)(=O)=O (single isomer, unassigned) [Example 369]")
40.3
>>> quantitative_result("COc1ccc2c(n1)C(C)(C)N(c1cncc(OC(F)F)c1)C2=O [Example 295]")
48.8
>>> quantitative_result("CCS(=O)(=O)NCc1cncc(N2C(=O)c3ccc(F)cc3C2(C)C)c1 [Example 388]")
272

(a) O=C1c2ccc(Cl)cc2CCN1c1cncc(Cn2ccnc2C2CC2)c1 [Example 188]
(b) CCC(=O)N[C@@H]1CCCc2c1cncc2N1C(=O)c2ccc(Cl)cc2[C@@H]1C (single isomer, unassigned) [Example 359]
(c) CNC(=O)COc1cncc(N2CCc3cc(Cl)ccc3C2=O)c1 [Example 254]
(d) O=C1c2ccc(Cl)cc2CCN1c1cncc(C(O)C2CC2)c1 (stereo not drawn) [Example 20]
[in] In this exercise, place the 4 compounds in ascending sequence of their recorded EC50. Please reply with the labels ordered as requested. Many thanks.
[out] b, d, a, c

----------
target: human CYP11B2 (Homo sapiens, UniProt P19099); test: G-402 cellular enzyme assay, human CYP11B2 (aldosterone release, HTRF); settings: G-402 cells, 1 μM Deoxycorticosterone
pEC50: −log10 of the molar value.
assay endpoint: pEC50

(P) COc1cncc(N2CC(C)c3cc(Cl)ccc3C2=O)c1 (stereo not shown)
(Q) CC(C)N1CCN(Cc2cncc(N3C(=O)c4ccc(Cl)cc4C3(C)C)c2)C1=O
(R) O=C1c2ccc(Cl)cc2CCN1c1cncc(CNc2cccc(F)c2)c1
(S) CC[C@H]1c2cc(Cl)ccc2C(=O)N1c1cncc2c1CCC[C@@H]2NS(C)(=O)=O (single isomer, unassigned)
[in] From the records above, write out the order of decreasing pEC50. Please reply with the labels ordered as requested. Many thanks.
[out] Q, R, P, S
(Q: 8.22, R: 7.91, P: 7.20, S: 5.55)

----------
target: UniProtKB P15538; test: G-402 cellular enzyme assay, human CYP11B1 (cortisol release, HTRF); settings: G-402 cells, 1 μM Deoxycortisol
assay endpoint: EC50 (µM)

>>> quantitative_result("O=C1c2ccc(Cl)cc2CCN1c1cncc(CO)c1")
3.72

(P) O=C1c2ccc(Cl)cc2C(Cc2ccccc2)N1c1cccnc1 (centres unmarked)
(Q) CC[C@H]1c2cc(Cl)ccc2C(=O)N1c1cncc2c1CCC[C@@H]2NS(C)(=O)=O (single isomer, unassigned)
(R) O=C1c2ccc(Cl)cc2CCN1c1cncc(Cl)c1
(S) Cc1n[nH]cc1-c1cncc(N2CCc3cc(Cl)ccc3C2=O)c1
(T) CC[C@@H]1c2cc(Cl)ccc2C(=O)N1c1cncc2c1CCC[C@H]2NS(C)(=O)=O (single isomer, unassigned)
[in] List items by EC50 in falling order. Please reply with the labels ordered as requested. Many thanks.
[out] Q, T, R, P, S

(1) CC1(C)c2cc(Cl)ccc2C(=O)N1c1cncc(CNc2cc[nH]n2)c1
(2) Cn1cnc(CNc2cncc(N3CCc4cc(Cl)ccc4C3=O)c2)c1
[in] Response body: label of entry with the larger EC50; valid values 1 , 2 . Write down the label of the entry you select.
[out] 2

----------
target: human CYP11B1 (Homo sapiens, UniProt P15538); experiment: G-402 cellular enzyme assay, human CYP11B1 (cortisol release, HTRF); details: G-402 cells, 1 μM Deoxycortisol
pEC50: −log10 of the molar value.
assay endpoint: pEC50

Example entries and their recorded answers appear below.
>>> quantitative_result("CCS(=O)(=O)NC1CCc2c1cncc2N1Cc2cc(Cl)ccc2C1=O (single isomer, unassigned)")
4.52
>>> quantitative_result("C[C@H](O)c1cncc(N2CCc3cc(Cl)ccc3C2=O)c1")
6.04
>>> quantitative_result("CC(=O)NC1CCCc2c1cncc2N1C(=O)c2ccc(Cl)cc2C1(C)C (single isomer, unassigned) [Example 467]")
5.66
>>> quantitative_result("CC(=O)N1CCC(c2cncc(N3C(=O)c4ccc(Cl)cc4C3(C)C)c2)C1 (stereo not drawn)")
6.29
>>> quantitative_result("Cn1cc(Cc2cncc(N3CCc4cc(Cl)ccc4C3=O)c2)cn1")
7.83

(1) COC(C)c1cncc(N2CCc3cc(Cl)ccc3C2=O)c1 (stereo not drawn)
(2) COC(C)c1ccncc1N1CCc2cc(Cl)ccc2C1=O (stereo not drawn)
[in] Response body: label of entry with the larger pEC50; valid values 1 , 2 . Write down the label of the entry you select.
[out] 1
(1: 6.90, 2: 5.20)
